System: Staphylococcus aureus
Experiment: Antibacterial activity against Staphylococcus aureus ATCC 29213 incubated for 24 hrs by broth microdilution method
Assay type: functional
Conditions: ATCC 29213, 24 h
Quantity Kind: MIC

Which MIC reading was recorded for the compound CCNC(=O)Nc1ccc(C(=O)Nc2ccc(Cl)cc2)cn1 ?
> 64 µg/mL

Given CCNC(=O)Nc1ccc(C(=O)Nc2ccnc(C)c2)cn1 , state its recorded MIC.
> 64 µg/mL

MIC lookup needed for CCNC(=O)Nc1ccc(C(=O)Nc2cc(Cl)ccc2C)cn1 , thanks.
> 64 µg/mL

Which value of MIC has been reported for CCNC(=O)Nc1cc(-c2cccnc2)c(C(=O)Nc2nccs2)cn1 in the records?
> 64 µg/mL

Look at this compound and give its reported MIC. CCNC(=O)Nc1ccc(C(=O)Nc2cccc(C#N)c2)cn1
> 64 µg/mL

Query: MIC; subject: CCNC(=O)Nc1cc(-c2ccccc2)c(C(=O)Nc2cccc(Cl)c2)cn1
> 64 µg/mL

GET /values?readout=MIC&item= CCNC(=O)Nc1cc(N2CCN(C)CC2)c(C(=O)Nc2cccc(Cl)c2)cn1
> 64 µg/mL

Fill in: MIC of CCNC(=O)Nc1cc(Nc2cccnc2)c(C(=O)Nc2cccnc2)cn1 is ___
8 µg/mL

Would you mind telling me what MIC value was observed for CCNC(=O)Nc1cc(NCc2cccnc2)c(C(=O)Nc2ccccc2)cn1 ?
> 64 µg/mL

MIC lookup needed for CCNC(=O)Nc1ccc(C(=O)Nc2nccs2)cn1 , thanks.
> 64 µg/mL

Which measured MIC value corresponds to CCNC(=O)Nc1ccc(C(=O)Nc2ccccc2)cn1 ?
> 64 µg/mL

Reported MIC for CCNC(=O)Nc1cc(Nc2cccnc2)c(C(=O)Nc2ccccc2)cn1 : what is it?
1 µg/mL

GET /values?readout=MIC&item= CCNC(=O)Nc1cc(Nc2cccc(C)c2)c(C(=O)Nc2nccs2)cn1
> 64 µg/mL

Recorded MIC of CCNC(=O)Nc1ccc(C(=O)Nc2cccc(C)c2)cn1 , please.
32 µg/mL

Request the reported MIC associated with CCNC(=O)Nc1cc(Nc2ccccc2)c(C(=O)NCc2cccnc2)cn1
> 16 µg/mL

Look at this compound and give its reported MIC. CCNC(=O)Nc1cc(Oc2ccccc2)c(C(=O)Nc2ccccc2)cn1
> 16 µg/mL

For CCNC(=O)Nc1ccc(C(=O)Nc2cccnc2)cn1 , what is its reported MIC?
> 256 µg/mL

Which MIC reading was recorded for the compound CCNC(=O)Nc1ccc(C(=O)Nc2ccc3c(C)cc(=O)oc3c2)cn1 ?
> 64 µg/mL

For the compound shown here, CCNC(=O)Nc1ccc(C(=O)Nc2cc(C(=O)OC)ccn2)cn1 , give the reported MIC.
> 64 µg/mL

Look up MIC: CCNC(=O)Nc1cc(Nc2ccccc2)c(C(=O)Nc2cccnc2)cn1
1 µg/mL

Requested read-out: MIC. Entry: CCNC(=O)Nc1cc(-c2cccnc2)c(C(=O)Nc2cccc(Cl)c2)cn1
> 64 µg/mL

Recorded MIC for CCNC(=O)Nc1cc(NC2CCCCC2)c(C(=O)Nc2cccc(C)c2)cn1 , please?
> 64 µg/mL

Returns the measured MIC for the input compound. Input: CCNC(=O)Nc1cc(N2CCN(C)CC2)c(C(=O)Nc2cccnc2)cn1
> 64 µg/mL

Any idea what MIC was measured for CCNC(=O)Nc1cc(N2CCN(C)CC2)c(C(=O)Nc2cccc(C)c2)cn1 ?
> 64 µg/mL

What value of MIC has been reported for the following compound? CCNC(=O)Nc1ccc(C(=O)Nc2cccc(Cl)c2)cn1
16 µg/mL

Find the recorded MIC belonging to CCNC(=O)Nc1ccc(C(=O)Nc2cccc(F)c2)cn1 and report it.
32 µg/mL

Query (compound): CCNC(=O)Nc1cc(Nc2ccccc2)c(C(=O)Nc2cccc(C)c2)cn1 ; field requested: MIC
1 µg/mL

Report MIC for CCNC(=O)Nc1ccc(C(=O)NC2CCCCC2)cn1 please.
> 64 µg/mL

Fill in the blank: the reported MIC of CCNC(=O)Nc1cc(Nc2ccccc2)c(C(=O)Nc2ccc(NC(C)=O)nc2)cn1 is ____.
2 µg/mL

Please look up its MIC: CCNC(=O)Nc1cc(-n2ccnc2)c(C(=O)Nc2cccc(Cl)c2)cn1
> 64 µg/mL

# input compound: CCNC(=O)Nc1cc(Nc2ccccc2)c(C(=O)Nc2ccccc2)cn1 ; wanted: its MIC
1 µg/mL

Record request: MIC value, item CCNC(=O)Nc1cc(-c2cccnc2)c(C(=O)Nc2cccc(C)c2)cn1
> 64 µg/mL

Which measured MIC value corresponds to CCNC(=O)Nc1cc(Nc2ccccc2)c(C(=O)Nc2cccc(Cl)c2)cn1 ?
0.5 µg/mL

Need MIC of CCNC(=O)Nc1ccc(C(=O)Nc2cccc(CC)c2)cn1 , thanks.
> 256 µg/mL

Which measured MIC value corresponds to CCNC(=O)Nc1cc(Nc2ccccc2)c(C(=O)Nc2ccc(N3CCOCC3)nc2)cn1 ?
2 µg/mL

Look up MIC for this compound: CCNC(=O)Nc1ccc(C(=O)Nc2cccc(C(N)=O)c2)cn1
> 256 µg/mL

So what's the measured MIC for this one? CCNC(=O)Nc1ccc(C(=O)Nc2ccncc2)cn1
> 64 µg/mL

# lookup: MIC of CCNC(=O)Nc1ccc(C(=O)Nc2ncc(C(=O)O)s2)cn1
> 64 µg/mL

Field request: MIC | item: CCNC(=O)Nc1cc(-c2cccnc2)c(C(=O)Nc2cccnc2)cn1
> 64 µg/mL

What does the data say about its MIC? Entry: CCNC(=O)Nc1ccc(C(=O)Nc2ccccc2Cl)cn1
> 64 µg/mL

Find the recorded MIC belonging to CCNC(=O)Nc1cc(Nc2ccc(OC)cc2OC)c(C(=O)Nc2cccnc2)cn1 and report it.
1 µg/mL

Could you tell me which MIC is on file for CCNC(=O)Nc1cc(N2CCN(C)CC2)c(C(=O)Nc2nccs2)cn1 ?
> 64 µg/mL

Need MIC, item CCNC(=O)Nc1cc(Nc2ccc(O)cc2)c(C(=O)Nc2cccnc2)cn1
8 µg/mL
